# targetDesc: LmjIPCS (inositol phosphorylceramide synthase from L. major) (Leishmania major, UniProt E9AFX2)
# protocol: biochemical
# Assay type: biochemical
# Parameters: dose or concentration left out as unconfirmed
# experimentalSetup: screening of NINDS set, sheet Screen 1; read-out: inhibition LmjIPCS

compound: Cc1onc(-c2ccccc2)c1-c1ccc(S(N)(=O)=O)cc1
inhibition / %: 3.24
--
compound: NC[C@H]1CC[C@H](C(=O)O)CC1
inhibition / %: 2.2
--
compound: CC(C)[C@H]1CC[C@H](C(=O)N[C@H](Cc2ccccc2)C(=O)O)CC1 [NATEGLINIDE]
inhibition / %: 7
--
compound: NC1=NCCN1CC(=O)O
inhibition / %: 11
--
compound: NC(=O)c1ccc([N+](=O)[O-])cc1Cl [AKLOMIDE]
inhibition / %: 4
--
compound: COc1ccc(/C=C/c2cc(O)cc(O[C@@H]3O[C@H](CO)[C@@H](O)[C@H](O)[C@H]3O)c2)cc1O
inhibition / %: 3

---

# targetDesc: LmjIPCS (inositol phosphorylceramide synthase from L. major) (Leishmania major, UniProt E9AFX2)
# Sequence (E9AFX2 1-338): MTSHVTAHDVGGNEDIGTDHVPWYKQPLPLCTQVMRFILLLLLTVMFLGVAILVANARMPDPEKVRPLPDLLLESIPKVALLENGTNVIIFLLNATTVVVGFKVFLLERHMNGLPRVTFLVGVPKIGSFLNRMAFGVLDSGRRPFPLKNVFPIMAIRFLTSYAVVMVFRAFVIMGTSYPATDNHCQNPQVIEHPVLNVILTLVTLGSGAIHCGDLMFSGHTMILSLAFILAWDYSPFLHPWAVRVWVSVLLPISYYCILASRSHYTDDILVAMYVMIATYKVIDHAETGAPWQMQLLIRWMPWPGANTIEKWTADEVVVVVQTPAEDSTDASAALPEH
# protocol: biochemical
# Format: biochemical
Catalogue of substances with associated 20mM inhibition LmjIPCS

substance: MERBROMIN
20mM inhibition LmjIPCS (%): -21
//
substance: HECOGENIN
20mM inhibition LmjIPCS (%): 23
//
substance: 1R,2S-PHENYLPROPYLAMINE
20mM inhibition LmjIPCS (%): -2.19
//
substance: CRESOL
20mM inhibition LmjIPCS (%): 53
//
substance: DEGUELIN(-)
20mM inhibition LmjIPCS (%): 51
//
substance: BENZALKONIUM CHLORIDE
20mM inhibition LmjIPCS (%): 9
//
substance: TANNIC ACID
20mM inhibition LmjIPCS (%): 91
//
substance: GINKGOLIC ACID
20mM inhibition LmjIPCS (%): 73

---

# targetDesc: LmjIPCS (inositol phosphorylceramide synthase from L. major) (Leishmania major, UniProt E9AFX2)
# protocol: biochemical
# Type: biochemical
# experimentalSetup: NINDS set screen, single concentration printed as 20mM
assayEndpoint: 20mM inhibition LmjIPCS (%)

cpdSmiles: C=C[C@@]1(C)CC(=O)[C@]2(O)[C@@]3(C)[C@@H](O)CCC(C)(C)[C@@H]3[C@H](O)[C@H](OC(C)=O)[C@@]2(C)O1
unitLabel: %
recordedResult: 51
--
cpdSmiles: CC[C@H]1OC(=O)[C@H](C)[C@@H](O[C@H]2C[C@@](C)(OC)[C@@H](O)[C@H](C)O2)[C@H](C)[C@@H](O[C@@H]2O[C@H](C)C[C@H](N(C)C)[C@H]2O)[C@](C)(O)C[C@@H](C)/C(=N\OCOCCOC)[C@H](C)[C@@H](O)[C@]1(C)O
unitLabel: %
recordedResult: 59

---

# targetDesc: UniProt E9AFX2
# protocol: biochemical
# Type: biochemical
# Parameters: dose or concentration left out as unconfirmed
# experimentalSetup: read-out: inhibition LmjIPCS

compound: Nc1nc2nc[nH]c2c(=S)[nH]1
inhibition (%): 6
--
compound: Oc1ccc(/C=C/c2cc(O)cc(O)c2)cc1
inhibition (%): -9
--
compound: C[N+](C)(C)CC(O)CC(=O)[O-] (stereo not drawn)
inhibition (%): 15
--
compound: C[C@@H]1C[C@H]2[C@@H]3CCC4=CC(=O)C=C[C@]4(C)[C@@]3(F)[C@@H](O)C[C@]2(C)[C@@]1(O)C(=O)CO
inhibition (%): -4
--
compound: Cc1c(C(N)=O)cc([N+](=O)[O-])cc1[N+](=O)[O-] [DINITOLMIDE]
inhibition (%): 5
--
compound: NC(=O)N1c2ccccc2CC(=O)c2ccccc21 [OXCARBAZEPINE]
inhibition (%): -4
--
compound: CC[C@@H](CO)NCCN[C@@H](CC)CO
inhibition (%): -1.19
--
compound: COc1cc(O)c2c(c1)C(=O)c1cc(C)cc(O)c1C2=O
inhibition (%): 18
--
compound: COc1cc([C@@H]2c3cc4c(cc3[C@@H](O[C@@H]3O[C@@H]5CO[C@@H](c6cccs6)O[C@H]5[C@H](O)[C@H]3O)[C@H]3COC(=O)[C@H]23)OCO4)cc(OC)c1O [TENIPOSIDE]
inhibition (%): 23

---

Catalogue of compounds with associated inhibition
# targetDesc: LmjIPCS (inositol phosphorylceramide synthase from L. major) (Leishmania major)
# protocol: biochemical
# Assay type: biochemical
# Set-up: dose or concentration left out as unconfirmed
# experimentalSetup: read-out: inhibition LmjIPCS

compound: CC[N+](C)(C)Cc1ccccc1Br [BRETYLIUM]
unitLabel: %
inhibition: 14
//
compound: CO[C@H]1C[C@H](O[C@H]2[C@H](C)[C@@H](O[C@@H]3O[C@H](C)C[C@H](N(C)C)[C@H]3OC(C)=O)[C@@H](C)C[C@@]3(CO3)C(=O)[C@H](C)[C@@H](OC(C)=O)[C@@H](C)[C@@H](C)OC(=O)[C@@H]2C)O[C@@H](C)[C@@H]1OC(C)=O [TROLEANDOMYCIN]
unitLabel: %
inhibition: 18
//
compound: NS(=O)(=O)c1cc2c(cc1Cl)NC(C(Cl)Cl)NS2(=O)=O (stereo not shown) [TRICHLORMETHIAZIDE]
unitLabel: %
inhibition: 20
//
compound: COc1c(C)c2c(c(O)c1C/C=C(\C)CCC(=O)O)C(=O)OC2 [MYCOPHENOLIC ACID]
unitLabel: %
inhibition: 4
//
compound: Cc1ncc([N+](=O)[O-])n1CCO [METRONIDAZOLE]
unitLabel: %
inhibition: 7
//
compound: CCCCc1nc(Cl)c(CO)n1Cc1ccc(-c2ccccc2-c2nn[nH]n2)cc1 [LOSARTAN]
unitLabel: %
inhibition: -2.81
//
compound: O=c1cc(-c2ccccc2)oc2cc(O)cc(O)c12 [CHRYSIN]
unitLabel: %
inhibition: 22

---

# targetDesc: LmjIPCS (inositol phosphorylceramide synthase from L. major) (Leishmania major, UniProt E9AFX2)
# protocol: biochemical
# Format: biochemical
# experimentalSetup: read-out: 20mM inhibition LmjIPCS
Catalogue of compounds with associated inhibition at 20000 µM

compound: Cc1ccc(S(=O)(=O)NC(=O)NN2CCCCCC2)cc1 [TOLAZAMIDE]
inhibition at 20000 µM [%]: -5
//
compound: O[C@@H]1CCCC[C@H]1N1CCC(c2ccccc2)CC1 (racemic)
inhibition at 20000 µM [%]: 14
//
compound: C#C[C@]1(O)CC[C@H]2[C@@H]3CCC4=CC(=O)CC[C@]4(C)[C@H]3CC[C@@]21C
inhibition at 20000 µM [%]: 2.43
//
compound: O=NN(CCCl)C(=O)NCCCl
inhibition at 20000 µM [%]: 10
//
compound: O=C1c2ccccc2C(=O)c2ccccc21
inhibition at 20000 µM [%]: 10
//
compound: CC(C)C(=O)Nc1ccc([N+](=O)[O-])c(C(F)(F)F)c1 [FLUTAMIDE]
inhibition at 20000 µM [%]: -1.8
//
compound: COc1ccc(C(=O)CC(=O)c2ccc(C(C)(C)C)cc2)cc1
inhibition at 20000 µM [%]: 0.941
//
compound: COc1ccccc1OCC(O)CO (stereo not shown)
inhibition at 20000 µM [%]: -0.357
//
compound: COc1cc(C(C)=O)cc(OC)c1O
inhibition at 20000 µM [%]: 21
//
compound: Oc1cccc2cccnc12
inhibition at 20000 µM [%]: 14

---

# targetDesc: LmjIPCS (inositol phosphorylceramide synthase from L. major) (Leishmania major, UniProt E9AFX2)
# Sequence (E9AFX2 1-338): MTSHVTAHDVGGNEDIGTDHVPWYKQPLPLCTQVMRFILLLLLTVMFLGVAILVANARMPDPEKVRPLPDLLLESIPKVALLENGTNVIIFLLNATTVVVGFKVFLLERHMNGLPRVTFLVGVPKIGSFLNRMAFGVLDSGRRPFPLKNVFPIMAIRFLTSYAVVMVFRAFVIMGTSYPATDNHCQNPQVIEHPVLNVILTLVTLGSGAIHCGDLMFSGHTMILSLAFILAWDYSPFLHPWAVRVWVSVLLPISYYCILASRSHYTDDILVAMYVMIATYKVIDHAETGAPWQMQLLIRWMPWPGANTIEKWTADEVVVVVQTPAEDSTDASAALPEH
# protocol: biochemical
# Format: biochemical
# experimentalSetup: read-out: 20mM inhibition LmjIPCS
Catalogue of compounds with associated inhibition at 20000 µM

compound: OCc1c[nH]c2ccccc12
inhibition at 20000 µM / %: 11
--
compound: CCCCCC1C(=O)CCC1CC(=O)O (stereo not drawn) [DIHYDROJASMONIC ACID]
inhibition at 20000 µM / %: 20
--
compound: CCS(=O)(=O)CCn1c([N+](=O)[O-])cnc1C
inhibition at 20000 µM / %: 15
--
compound: COc1ccccc1OCC(O)COC(N)=O (stereo not drawn)
inhibition at 20000 µM / %: 13
--
compound: CC(C)NCC(O)COc1ccc(CC(N)=O)cc1 (stereo not drawn)
inhibition at 20000 µM / %: -6
--
compound: O=C(O)c1cccnc1C(=O)O
inhibition at 20000 µM / %: 5.51
--
compound: C[C@@H]1O[C@@H](O[C@H]2C[C@@H](O)[C@]3(CO)[C@H]4[C@H](O)C[C@]5(C)[C@@H](C6=CC(=O)OC6)CC[C@]5(O)[C@@H]4CC[C@]3(O)C2)[C@H](O)[C@H](O)[C@H]1O
inhibition at 20000 µM / %: 1.15
--
compound: CSCC[C@H](NC=O)C(=O)N[C@@H](CC(C)C)C(=O)N[C@@H](Cc1ccccc1)C(=O)O
inhibition at 20000 µM / %: 19
--
compound: O=C(O)CCC(=O)c1ccc(-c2ccccc2)cc1
inhibition at 20000 µM / %: 12
